- ASSAYED_SYSTEM: AURKA (Homo sapiens)
- Sequence (O14965 whole entry): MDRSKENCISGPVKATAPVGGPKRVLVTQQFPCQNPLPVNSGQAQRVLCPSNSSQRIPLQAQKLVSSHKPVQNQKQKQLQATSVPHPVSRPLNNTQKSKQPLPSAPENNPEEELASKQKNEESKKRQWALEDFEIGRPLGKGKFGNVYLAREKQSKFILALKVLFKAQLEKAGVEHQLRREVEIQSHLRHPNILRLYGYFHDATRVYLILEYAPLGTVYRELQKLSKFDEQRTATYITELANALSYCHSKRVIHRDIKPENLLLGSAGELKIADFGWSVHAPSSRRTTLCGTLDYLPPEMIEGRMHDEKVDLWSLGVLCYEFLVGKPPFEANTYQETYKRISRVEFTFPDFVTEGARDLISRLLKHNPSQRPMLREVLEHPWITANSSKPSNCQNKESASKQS
- EXPERIMENT_NOTES: AURKA degradation, Simple Western;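 note: measured in NGP neuroblastoma cells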
- Format: cell-based
- Set-up: Representative Western blot showing levels of endogenous proteins MDR1, MYCN, AURKA, and CRBN in untreated cell lines; endogenous in cells; host or cells: NGP, IMR-32, SJNB-8, SK-N-BE(2)-C, SK-N-SH, SK-N-AS, SJNB-1, RPE, HEK293T
- CONDITION_INFO: 24h, 100nM
Field: AURKA Degradation 24h @100nM. Provide a value for each of the compounds that follow.
Answers are plain numbers.

The examples below pair each entry with its known result.
Retrieve AURKA Degradation 24h @100nM on AURKA (Homo sapiens); query O=C1CCN(c2ccc(C3CCN(C4CN(C(=O)[C@]5(Cc6cccc(Nc7nccs7)n6)CC[C@@H](Oc6cccc(Cl)c6F)CC5)C4)CC3)nc2)C(=O)N1
80

Lab note: record AURKA Degradation 24h @100nM of O=C1CCC(N2C(=O)c3ccc(N4CCN(CCNC(=O)[C@]5(Cc6cccc(Nc7nccs7)n6)CC[C@@H](Oc6cccc(Cl)c6F)CC5)CC4)cc3C2=O)C(=O)N1 (some centres unmarked) tested on AURKA (Homo sapiens).
85

Supply AURKA Degradation 24h @100nM measured with AURKA (Homo sapiens) for Cc1cc(Nc2ccc(F)c(CC3(C(=O)N4CCC(F)(CN5CCN(c6ccc(N7CCC(=O)NC7=O)cn6)CC5)CC4)CCN(Cc4cccc(Cl)c4F)CC3)n2)n[nH]1 .
88

// each listed compound needs a value for AURKA Degradation 24h @100nM
1. Cc1cc(Nc2ccc(F)c(CC3(C(=O)N4CC(CN5CCN(c6ccc(N7CCC(=O)NC7=O)cn6)CC5)C4)CCN(Cc4cccc(Cl)c4F)CC3)n2)n[nH]1
2. O=C1CCC(N2C(=O)c3cccc(N4CCN(C(=O)COCCOCCNC(=O)[C@]5(Cc6cccc(Nc7nccs7)n6)CC[C@@H](Oc6cccc(Cl)c6F)CC5)CC4)c3C2=O)C(=O)N1 (some centres unmarked)

1. 80
2. 70
